# Assay System: KCNJ5^G151R (Homo sapiens, UniProt P48544, G151R)
# Construct: expressed in transfected cells
# Sequence (P48544 whole entry G151R): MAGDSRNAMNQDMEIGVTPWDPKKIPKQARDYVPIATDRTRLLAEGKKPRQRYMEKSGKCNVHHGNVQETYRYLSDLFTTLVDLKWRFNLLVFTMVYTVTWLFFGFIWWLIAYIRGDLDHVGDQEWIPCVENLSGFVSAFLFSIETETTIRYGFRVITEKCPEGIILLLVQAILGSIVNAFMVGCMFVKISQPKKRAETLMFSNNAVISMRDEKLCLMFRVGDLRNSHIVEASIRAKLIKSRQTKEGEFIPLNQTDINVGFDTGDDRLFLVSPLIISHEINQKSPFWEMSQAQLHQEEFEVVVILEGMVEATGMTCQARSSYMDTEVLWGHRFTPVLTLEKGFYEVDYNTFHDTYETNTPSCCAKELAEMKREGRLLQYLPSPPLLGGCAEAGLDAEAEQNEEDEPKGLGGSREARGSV
# Assay Remarks: cell-based
# Assay type: cell-based
# Test Settings: 10 μM; mean of primary screen and hit pick
Recorded Metric: mean % effect (%)
Reply numerically in %, unit not repeated.

Some compounds with recorded mean % effect:
COc1cc(-c2ccc(NC(=O)NC3CC3)c(OC)c2)ccc1NC(=O)NC1CC1    58.1
Cc1ccc(NC(=O)c2c(C)oc3ccc(O)c(CN4CCCCCC4)c23)cc1    42.0
Cc1oc2ccc(O)c(CN3CCCCC3)c2c1C(=O)Nc1cccc(C(F)(F)F)c1    61.9
COc1ccc(NC(=O)c2c(C)oc3ccc(O)c(CN4CCCC(C)C4)c23)cc1 (stereo not drawn)    60.8

Now look at this entry.
Reported mean % effect of CC(=O)N(C)c1c(I)cc(I)c(OC(C)C(=O)O)c1I (stereo not drawn) : 65.7

====

# Assay System: KCNJ5^G151R (Homo sapiens, UniProt P48544, G151R)
# Construct: expressed in transfected cells
# Assay Remarks: cell-based
# Format: cell-based
# Test Settings: primary screen, 10 μM
Recorded Metric: activity against KCNJ5^G151R in the primary screen

CO[C@H]1C[C@H](O[C@H]2[C@H](C)[C@@H](O[C@@H]3O[C@H](C)C[C@H](N(C)C)[C@H]3OC(C)=O)[C@@H](C)C[C@@]3(CO3)C(=O)[C@H](C)[C@@H](OC(C)=O)[C@@H](C)[C@@H](C)OC(=O)[C@@H]2C)O[C@@H](C)[C@@H]1OC(C)=O [troleandomycin]    little or no activity
CO[C@@H]1[C@@H](O[C@@H]2O[C@H](C)[C@@H](O[C@H]3C[C@@](C)(O)[C@@H](OC(=O)CC(C)C)[C@H](C)O3)[C@H](N(C)C)[C@H]2O)[C@@H](CC=O)C[C@@H](C)[C@@H](O)/C=C/C=C/C[C@@H](C)OC(=O)C[C@H]1OC(C)=O [josamycin]    little or no activity
CC[C@@H]1C=CC=CC[C@H](C)[C@@H](O)[C@@H](C)C(=O)[C@H](C)[C@@H](O)[C@H](C)C(=O)[C@H](C)[C@@H](O)[C@H](C)C=CC(=O)O[C@H]2[C@@H](C)[C@@H](CC1)O[C@@]1(CC[C@@H](C)[C@@H](C[C@H](C)O)O1)[C@@H]2C [oligomycin C]    little or no activity

====

# Assay System: KCNJ5^G151R (Homo sapiens, UniProt P48544, G151R)
# Construct: expressed in transfected cells
# Assay Remarks: cell-based
# Assay type: cell-based
# Test Settings: HEK293; 10 μM; ATP level 72 h after induction; uninduced = 100%, induced = 0% effect; first of the two runs (primary screen / hit pick); read-out: % effect (1)
Counter-ions that a name gives are not always drawn.
Recorded Metric: viability at 10 µM (%)
Reply numerically in %, unit not repeated.

Some compounds with recorded viability at 10 µM:
CCCC(C(=O)OCCN(CC)CC)(c1ccccc1)c1ccccc1 [YU226705, Proadifen HCl]    43.3
Cc1c(O)cccc1C(=O)N[C@@H](CSc1ccccc1)[C@H](O)CN1C[C@H]2CCCC[C@H]2C[C@H]1C(=O)NC(C)(C)C (racemic) [YU040261, Nelfinavir mesylate]    42
c1cncnc1 [YU221968, Pyrimidine]    77.2
CCCNCC(O)COc1ccccc1C(=O)CCc1ccccc1 (centres unmarked) [YU034516, Propafenone]    39.7

Now look at this entry.
Reported viability at 10 µM of CN(C)C(=O)C(CCN1CCC(O)(c2ccc(Cl)cc2)CC1)(c1ccccc1)c1ccccc1 [YU224113, Loperamide-HCl] : 35.2

Data provenance: patent US11484543B2
